All figures here come from the supplement of paper PMC10567573.

Listed here: items and their measured protein stability index.
B1: INTS4 (parent)
chain: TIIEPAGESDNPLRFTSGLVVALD

Variants of: B1
assay.text: protein stability index of a GFP-peptide fusion (GPS, HEK-293T) (PSI 1-6); higher = more stable;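 note: lentivirally expressed fusions sorted by FACS into six bins by GFP to DsRed ratio, PSI derived from sequencing read proportions per bin multiplied by bin number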
measurement.context: c terminus: a fixed tail appended

Example cases with answers are listed next.
{"sequence.input": "TIIEPAGESDNDLRFTSGLVVALD [P12D]", "measure.name": "protein stability index", "result": 3.4}
{"sequence.input": "TIIEPAGVSDNPLRFTSGLVVALD [E8V]", "measure.name": "protein stability index", "result": 2.66}
{"sequence.input": "TIIEPAGESDNPLRFTSGLVVALV [D24V]", "measure.name": "protein stability index", "result": 2.33}
{"sequence.input": "TIIEPAGESDNPLRFESGLVVALD [T16E]", "measure.name": "protein stability index", "result": 3.44}
{"sequence.input": "TIIEPAGESDNPLQFTSGLVVALD [R14Q]", "measure.name": "protein stability index", "result": 3.26}

Recorded result, TYIEPAGESDNPLRFTSGLVVALD [I2Y] , protein stability index: 2.32

The reported value for TIIAPAGESDNPLRFTSGLVVALD [E4A] in terms of protein stability index is 2.76

The recorded protein stability index for entry TIIEPAGEFDNPLRFTSGLVVALD [S9F] equals 2.65

The value of protein stability index measured for the variant TIIEPAGESDNPLRFTSGLVVALT [D24T] turned out to be 2.2
